Target: UniProt:Q8NHM5
Sequence (Q8NHM5 whole entry): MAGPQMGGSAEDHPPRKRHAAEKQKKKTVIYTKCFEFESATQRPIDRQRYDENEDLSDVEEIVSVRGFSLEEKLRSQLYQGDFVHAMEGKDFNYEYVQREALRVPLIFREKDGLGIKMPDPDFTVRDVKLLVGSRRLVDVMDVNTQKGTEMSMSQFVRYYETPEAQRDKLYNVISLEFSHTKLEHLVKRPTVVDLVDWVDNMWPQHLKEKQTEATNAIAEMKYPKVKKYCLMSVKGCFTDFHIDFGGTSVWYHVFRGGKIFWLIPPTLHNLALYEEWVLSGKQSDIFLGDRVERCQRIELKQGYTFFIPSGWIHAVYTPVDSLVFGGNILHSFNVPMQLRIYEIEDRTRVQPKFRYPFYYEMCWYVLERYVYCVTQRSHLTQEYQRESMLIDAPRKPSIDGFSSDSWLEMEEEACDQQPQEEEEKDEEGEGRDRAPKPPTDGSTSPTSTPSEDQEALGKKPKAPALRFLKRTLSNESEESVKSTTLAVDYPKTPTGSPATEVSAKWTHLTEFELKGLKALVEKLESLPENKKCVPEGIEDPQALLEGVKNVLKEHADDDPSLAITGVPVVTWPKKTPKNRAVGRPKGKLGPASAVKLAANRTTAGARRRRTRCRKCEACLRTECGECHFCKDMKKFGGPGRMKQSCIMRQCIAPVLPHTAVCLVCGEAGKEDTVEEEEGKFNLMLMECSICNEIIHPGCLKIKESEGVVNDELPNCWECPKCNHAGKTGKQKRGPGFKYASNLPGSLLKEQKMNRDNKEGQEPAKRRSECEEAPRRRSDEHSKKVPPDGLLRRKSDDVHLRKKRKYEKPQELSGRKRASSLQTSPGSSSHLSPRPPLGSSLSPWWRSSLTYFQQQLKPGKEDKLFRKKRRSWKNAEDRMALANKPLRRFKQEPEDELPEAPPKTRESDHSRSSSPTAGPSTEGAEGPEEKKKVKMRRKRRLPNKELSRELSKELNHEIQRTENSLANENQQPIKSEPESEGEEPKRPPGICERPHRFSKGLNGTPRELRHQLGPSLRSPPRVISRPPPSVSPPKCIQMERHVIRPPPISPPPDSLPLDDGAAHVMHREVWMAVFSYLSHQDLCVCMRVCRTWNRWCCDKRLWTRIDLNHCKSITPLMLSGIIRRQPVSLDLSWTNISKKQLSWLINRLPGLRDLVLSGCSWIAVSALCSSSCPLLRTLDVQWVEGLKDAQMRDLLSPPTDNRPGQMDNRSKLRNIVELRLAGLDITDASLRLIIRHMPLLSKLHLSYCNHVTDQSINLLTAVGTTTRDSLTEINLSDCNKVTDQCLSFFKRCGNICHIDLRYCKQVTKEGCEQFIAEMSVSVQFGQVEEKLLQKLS
pIC50: −log10 of the molar value.
parameter: pIC50

*Q* What does the record list as pIC50 for CN(c1ccccc1)c1ccc2c(c1)CCC[C@H]2CNc1cnccc1C(=O)O ?
*A* < 5.40
